# Tested on: V-C8 (BRCA2-deficient hamster cells)
# assaySummary: normalised cell viability (fraction of plate median); higher = more viable cells (less toxic)
# runParameters: treatment time: 3 days; 5 µM
Structures can show the parent of a compound that is named as a salt. Over roughly 1,300 compounds, “normalised cell viability” has its median near 1; the lowest 2% begin near 0.14. Shown is part of a subset that was picked to be rich in the lowest values.
Listing: normalised cell viability of selected compounds
Please reply with the number alone, leaving off any unit.

Previously resolved entries follow.
compound	assayTarget	normalised cell viability
COc1cccc2c1C(=O)c1c(O)c3c(c(O)c1C2=O)C[C@@](O)(C(=O)CO)C[C@@H]3O[C@H]1C[C@H](N)[C@@H](O)[C@H](C)O1 [Epirubicin hydrochloride]	V-C8 (BRCA2-deficient hamster cells)	0.123
C=C(CC)C(=O)c1ccc(OCC(=O)O)c(Cl)c1Cl	V-C8 (BRCA2-deficient hamster cells)	1.08
CCc1cccc(CC)c1NC(=O)CN(CC(=O)O)CC(=O)O	V-C8 (BRCA2-deficient hamster cells)	1.07

Problem: Returns the measured normalised cell viability for the input compound. Input: "CCCOc1ccc2[nH]c(NC(=O)OC)nc2c1"
Solution: 0.185

Problem: Same again, this time with C=CC(N)CCC(=O)O (configuration not stated)
Solution: 1.04

Problem: Queued: COc1cccc2c1C(=O)c1c(O)c3c(c(O)c1C2=O)C[C@@](O)(C(C)=O)C[C@@H]3O[C@H]1C[C@H](N)[C@H](O)[C@H](C)O1 [Daunorubicin hydrochloride]
Solution: 0.141

Problem: // repeat for "C#C[C@]1(O)CC[C@H]2[C@@H]3CCC4=CCCC[C@@H]4[C@H]3CC[C@@]21C" and report
Solution: 1.1

Problem: Check "CO[C@H]1/C=C/O[C@@]2(C)Oc3c(C)c(O)c4c(c3C2=O)C2=NC3(CCN(CC(C)C)CC3)NC2=C(NC(=O)/C(C)=C\C=C\[C@H](C)[C@H](O)[C@@H](C)[C@@H](O)[C@@H](C)[C@H](OC(C)=O)[C@@H]1C)C4=O" too.
Solution: 0.973

Problem: Next compound up: "C=CC1=C(C(=O)O)N2C(=O)[C@@H](NC(=O)/C(=N\O)c3csc(N)n3)[C@H]2SC1"
Solution: 1.02

Problem: Also check C[n+]1ccccc1/C=N/O [Pralidoxime chloride]
Solution: 1.03

Problem: Moving on to CN1CCCCC1CCN1c2ccccc2Sc2ccc([S+](C)[O-])cc21 (configuration not stated) [Mesoridazine besylate]
Solution: 1.07

Problem: Thanks! And CCCCc1cc2ccccc2c(OCCN(C)C)n1 [Dimethisoquin hydrochloride] ?
Solution: 1.03

Problem: Record: "COC1=C(OC)C(=O)C(CCCCCCCCCCO)=C(C)C1=O"
Solution: 0.648

Problem: Also, "CCN(CC)C(=O)/C(C#N)=C/c1cc(O)c(O)c([N+](=O)[O-])c1" please.
Solution: 0.957

Problem: Also need "COC(=O)Nc1nc2cc(Sc3ccccc3)ccc2[nH]1" , thanks.
Solution: 0.187

Problem: # iterate: CC[C@]12CCCN3CCc4c(n(c5ccccc45)C(=O)C1)[C@@H]32 [Eburnamonine (-)]
Solution: 0.362

Problem: What do you get for "Cc1nc(=O)c2cc(CN(C)c3ccc(C(=O)N[C@@H](CCC(=O)O)C(=O)O)s3)ccc2[nH]1" ?
Solution: 0.332

Problem: Cool, now "COC(=O)Nc1nc2cc(C(=O)c3ccc(F)cc3)ccc2[nH]1"
Solution: 0.148

Problem: Now the compound "COC(=O)Nc1nc2cc(C(=O)c3ccccc3)ccc2[nH]1"
Solution: 0.164

Problem: Next compound: "CC(=O)OC[C@H]1O[C@@H]([S-])[C@H](OC(C)=O)[C@@H](OC(C)=O)[C@@H]1OC(C)=O.CCP(CC)CC.[Au+]"
Solution: 0.117
